assay: protein stability index of a GFP-peptide fusion (GPS, HEK-293T) (PSI 1-6); higher = more stable; conditions: treatment: MLN4924 1 uM, 8 h; c terminus: a fixed tail appended;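 further: 24-mer peptide tiles fused after GFP, lentivirally expressed, FACS-sorted into six equal bins by GFP/DsRed ratio, decoded by Illumina sequencing, PSI is the read-weighted mean bin number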
Label 0 (no) if protein stability index falls below 4; label 1 (yes) in every other case.

Please review the following examples before continuing.
Sequence	Class Name
RVRGRVGTIRPVRCPSSSLHMSQR [C22orf15]	0 (no)
IKSSLKDEYQYSFWDLFRSKDNMR [SLC2A12]	0 (no)
QLQVESNSSQLLLRRHAGLLDGLA [SCARA5]	0 (no)
RIHSGEKPYECNECGKAFSQSSYL [ZNF232]	0 (no)
DLPSSTPVANSGTKPKTTAIQGIS [DLC1]	1 (yes)
MDRRSRAQQWRRARHNYNDLCPPI [GNAS]	0 (no)
LSNLVGKPSENHPLHNSGLLSLDP [MED27]	1 (yes)
ALRNFACLTTGDVIAINYNEKIYE [UFD1]	0 (no)

Task: Exam item: decide whether the reported protein stability index for DAPEQRLRVMTTNIRSARGNNPNG [ELOA2] is at least 4.
Output: 1 (yes)

Task: Same question for ASNRIIGAKDHASIQMNVAEVSWE [RPS21] please.
Output: 0 (no)

Task: Entry RELKAKLSGVEEELQRTKQEVLSL [SASS6] please
Output: 1 (yes)

Task: Could you do the same for MSTKESDFLCLLGVSYTFDNEDSE [MIA2] , please?
Output: 0 (no)

Task: Do the same for FLQVLEPGARGLWKPPDIKGKLMV [SPAG8] please
Output: 0 (no)

###

assay: protein stability index of a GFP-peptide fusion (GPS, HEK-293T) (PSI 1-6); higher = more stable; details: treatment: DMSO; c terminus: a fixed tail appended
// reported protein stability index for each item listed

Sequence	protein stability index
DENREVLQTLLYFLSDVTAAVKEN [DLC1]	2.14

Could you now look at the following sequence, please?
Task: What protein stability index value was documented for this sequence, PCWKITLFVIVPVLGPLVALIICY [MOG] ?
Output: 2.87

###

test: protein stability index of a GFP-peptide fusion (GPS, HEK-293T) (PSI 1-6); higher = more stable; conditions: treatment: DMSO; c terminus: a fixed tail appended
Each entry gets No if its protein stability index stays under 4, and Yes if its protein stability index is 4 or above.

Below are worked cases with known answers.
Sequence	Class Name
SLLSKARGIDSSSVKLRGSSLFMD [WEE1]	No
QVAMRCRCSSMHFLVAEWNEPSIN [SAT1]	No
QRINTYVFVGNQLIPQPLDSEEDE [PCMTD1]	Yes
LYPFQIHSIALSTFASLIGPFGGF [CDS1]	No

Task: Identify whether the reported protein stability index of the following sequence is 4 or greater: EDNLSLVCLPRSEDDDCDDDDDDD [DRICH1]
Output: Yes

Task: Proceed to KLNLCEDGPCHKRRASICCTQLGS [SCARA5]
Output: No

Task: Same thing, different sequence: RPQHSHSNKKRPSLDGRDPGNGTH [ELOA2]
Output: Yes

Task: Next record, please: RNPDQRKESLCISITVSKVDKDQP [FBXO34]
Output: No

Task: Next: GVSALCAICGDRATGKHYGASSCD [HNF4A]
Output: No

Task: And what about the sequence ESILMSLPLTARWEYMHSPSENSK [CPOX] ?
Output: No

Task: Let us now turn to PRETLCTELVLSDCMLSEEGATLL [LRRC45]
Output: No
